- procedure text: Growth inhibition of human UO31 cells at 10 uM after 48 hrs by sulforhodamine B assay
- Type: functional
- conditions used: UO-31, 48 h, values are per cent of control
We label by threshold. Values of growth, % of control at 10 µM strictly beneath 40% are yes. Values of 40% and up are no.

[Q] Consider the molecule N#C/C(=C\c1cc2ccccc2s1)c1ccc2c(c1)OCO2 . Is its growth, % of control at 10 µM strictly less than 40%?
[A] yes

[Q] Consider the molecule COc1ccc(/C(C#N)=C/c2ccc3c(c2)OCCO3)cc1OC . Is its growth, % of control at 10 µM strictly less than 40%?
[A] no

[Q] Consider the molecule N#C/C(=C\c1cc(F)cc(F)c1)c1ccc2c(c1)OCO2 . Is its growth, % of control at 10 µM strictly less than 40%?
[A] no

[Q] Consider the molecule COc1ccc(/C(C#N)=C/c2ccc3c(c2)OCO3)cc1 . Is its growth, % of control at 10 µM strictly less than 40%?
[A] no

[Q] Consider the molecule COc1cc(/C=C(\C#N)c2ccc3c(c2)OCO3)cc(OC)c1 . Is its growth, % of control at 10 µM strictly less than 40%?
[A] no

[Q] Consider the molecule COc1ccc(/C=C(\C#N)c2ccc3c(c2)OCO3)c2ccccc12 . Is its growth, % of control at 10 µM strictly less than 40%?
[A] no

[Q] Consider the molecule COc1ccc(/C=C(\C#N)c2ccc3c(c2)OCO3)cc1OC . Is its growth, % of control at 10 µM strictly less than 40%?
[A] no

[Q] Consider the molecule COc1ccc(/C=C(\C#N)c2ccc3c(c2)OCO3)cc1 . Is its growth, % of control at 10 µM strictly less than 40%?
[A] yes

[Q] Consider the molecule N#C/C(=C\c1cccnc1Cl)c1ccc2c(c1)OCO2 . Is its growth, % of control at 10 µM strictly less than 40%?
[A] no

[Q] Consider the molecule N#C/C(=C\c1ccc(Cl)cc1Cl)c1ccc2c(c1)OCO2 . Is its growth, % of control at 10 µM strictly less than 40%?
[A] no

[Q] Consider the molecule N#C/C(=C\c1ccc2ccccc2n1)c1ccc2c(c1)OCO2 . Is its growth, % of control at 10 µM strictly less than 40%?
[A] no

====

- procedure text: Growth inhibition of human NCI-ADR-RES cells after 48 hrs by sulforhodamine B assay
- Format: functional
We label by threshold. Values of GI50 strictly beneath 2 µM are T. Values of 2 µM and up are F.

[Q] Consider the compound N#C/C(=C\c1cc2ccccc2s1)c1ccc2c(c1)OCO2 . Is its GI50 strictly less than 2 µM?
[A] T

[Q] Consider the compound COc1ccc(/C=C/c2cc(OC)c(OC)c(OC)c2)cc1 . Is its GI50 strictly less than 2 µM?
[A] F

[Q] Consider the compound COc1cc(/C(C#N)=C/c2ccc3c(c2)OCCO3)cc(OC)c1OC . Is its GI50 strictly less than 2 µM?
[A] T

[Q] Consider the compound COc1ccc(/C=C(\C#N)c2ccc3c(c2)OCO3)c(OC)c1 . Is its GI50 strictly less than 2 µM?
[A] F

[Q] Consider the compound N#C/C(=C\c1cccc2ccccc12)c1ccc2c(c1)OCO2 . Is its GI50 strictly less than 2 µM?
[A] F

[Q] Consider the compound COc1ccc(/C=C(\C#N)c2ccc3c(c2)OCO3)c2ccccc12 . Is its GI50 strictly less than 2 µM?
[A] T

[Q] Consider the compound COc1ccc(/C(C#N)=C/c2ccc3c(c2)OCCO3)cc1OC . Is its GI50 strictly less than 2 µM?
[A] T

[Q] Consider the compound COc1ccc(/C=C(\C#N)c2ccc3c(c2)OCO3)cc1 . Is its GI50 strictly less than 2 µM?
[A] T

[Q] Consider the compound COc1ccc(/C(C#N)=C/c2ccc3c(c2)OCCO3)cc1 . Is its GI50 strictly less than 2 µM?
[A] F

====

- System: MCF7
- procedure text: Growth inhibition of human MCF7 cells at 10 uM after 48 hrs by sulforhodamine B assay
- Format: functional
- conditions used: MCF7, 48 h, values are per cent of control
Assignment: determine reported growth, % of control at 10 µM for the given compounds.
Field: numeric (%). Do not append units.

Lab note: compound N#C/C(=C\c1ccc2ccccc2n1)c1ccc2c(c1)OCO2 tested on MCF7; recorded growth, % of control at 10 µM was 84.6

Lab note: compound N#C/C(=C\c1cccc2ccccc12)c1ccc2c(c1)OCO2 tested on MCF7; recorded growth, % of control at 10 µM was 26.1

Lab note: compound COc1ccc(/C(C#N)=C/c2ccc3c(c2)OCO3)cc1 tested on MCF7; recorded growth, % of control at 10 µM was 60.8

Lab note: compound COc1ccc(/C(C#N)=C/c2ccc3c(c2)OCCO3)cc1OC tested on MCF7; recorded growth, % of control at 10 µM was 20.1

Lab note: compound COc1ccc(/C=C(\C#N)c2ccc3c(c2)OCO3)c2ccccc12 tested on MCF7; recorded growth, % of control at 10 µM was 12.1

Lab note: compound COc1ccc(/C=C(\C#N)c2ccc3c(c2)OCO3)cn1 tested on MCF7; recorded growth, % of control at 10 µM was 83.5

Lab note: compound N#C/C(=C\c1cc(F)cc(F)c1)c1ccc2c(c1)OCO2 tested on MCF7; recorded growth, % of control at 10 µM was 88.4

Lab note: compound N#C/C(=C\c1ccc(Cl)c(Cl)c1)c1ccc2c(c1)OCO2 tested on MCF7; recorded growth, % of control at 10 µM was 79.9

Lab note: compound N#C/C(=C\c1cccnc1Cl)c1ccc2c(c1)OCO2 tested on MCF7; recorded growth, % of control at 10 µM was 112

Lab note: compound N#C/C(=C\c1cc2ccccc2s1)c1ccc2c(c1)OCO2 tested on MCF7; recorded growth, % of control at 10 µM was 16.3

Lab note: compound COc1ccc(/C=C(\C#N)c2ccc3c(c2)OCO3)c(Cl)c1OC tested on MCF7; recorded growth, % of control at 10 µM was 71.6

====

- procedure text: Growth inhibition of human IGROV1 cells at 10 uM after 48 hrs by sulforhodamine B assay
- Format: functional
- conditions used: IGROV-1, 48 h, values are per cent of control
Assignment: determine reported growth, % of control at 10 µM for the given molecules.
Field: numeric (%). Do not append units.

The value of growth, % of control at 10 µM measured for the molecule COc1ccc(/C(C#N)=C/c2ccc3c(c2)OCCO3)cc1 turned out to be 71.3

The value of growth, % of control at 10 µM measured for the molecule COc1cc(/C(C#N)=C/c2ccc3c(c2)OCCO3)cc(OC)c1OC turned out to be 25.5

The value of growth, % of control at 10 µM measured for the molecule N#C/C(=C\c1ccsc1)c1ccc2c(c1)OCO2 turned out to be 96.4

The value of growth, % of control at 10 µM measured for the molecule N#C/C(=C\c1ccc(Cl)cc1Cl)c1ccc2c(c1)OCO2 turned out to be 97.9

The value of growth, % of control at 10 µM measured for the molecule N#C/C(=C\c1ccc(Cl)c(Cl)c1)c1ccc2c(c1)OCO2 turned out to be 67.2

The value of growth, % of control at 10 µM measured for the molecule N#C/C(=C\c1ccc2ccccc2n1)c1ccc2c(c1)OCO2 turned out to be 55.1

The value of growth, % of control at 10 µM measured for the molecule COc1ccc(/C(C#N)=C/c2ccc3c(c2)OCO3)cc1 turned out to be 84.6

The value of growth, % of control at 10 µM measured for the molecule N#C/C(=C\c1cccnc1Cl)c1ccc2c(c1)OCO2 turned out to be 113

The value of growth, % of control at 10 µM measured for the molecule N#C/C(=C\c1cc2ccccc2s1)c1ccc2c(c1)OCO2 turned out to be 34.3

The value of growth, % of control at 10 µM measured for the molecule N#C/C(=C\c1c(Cl)cccc1Cl)c1ccc2c(c1)OCO2 turned out to be 85.6

The value of growth, % of control at 10 µM measured for the molecule N#C/C(=C\c1ccc2c(c1)OCO2)c1ccc2c(c1)OCO2 turned out to be 66.1

The value of growth, % of control at 10 µM measured for the molecule N#C/C(=C\c1cccc2ccccc12)c1ccc2c(c1)OCO2 turned out to be 68.8

====

Assignment: determine reported GI50 for the given molecules.
- procedure text: Growth inhibition of human MOLT4 cells after 48 hrs by sulforhodamine B assay
- Format: functional
- conditions used: MOLT-4, 48 h

The value of GI50 measured for the molecule COc1ccc(/C=C(\C#N)c2ccc3c(c2)OCO3)c2ccccc12 turned out to be 3.71 µM

The value of GI50 measured for the molecule COc1ccc(/C=C/c2cc(OC)c(OC)c(OC)c2)cc1 turned out to be 3.22 µM

The value of GI50 measured for the molecule COc1ccc(/C(C#N)=C/c2ccc3c(c2)OCCO3)cc1 turned out to be > 100 µM

The value of GI50 measured for the molecule COc1cc(/C(C#N)=C/c2ccc3c(c2)OCCO3)cc(OC)c1OC turned out to be 0.62 µM

The value of GI50 measured for the molecule COc1ccc(/C(C#N)=C/c2ccc3c(c2)OCCO3)cc1OC turned out to be 8.85 µM

The value of GI50 measured for the molecule N#C/C(=C\c1cccc2ccccc12)c1ccc2c(c1)OCO2 turned out to be 4.99 µM

The value of GI50 measured for the molecule COc1ccc(/C=C(\C#N)c2ccc3c(c2)OCO3)cc1 turned out to be 0.45 µM

The value of GI50 measured for the molecule COc1ccc(/C=C(\C#N)c2ccc3c(c2)OCO3)c(OC)c1 turned out to be 2.81 µM

The value of GI50 measured for the molecule N#C/C(=C\c1cc2ccccc2s1)c1ccc2c(c1)OCO2 turned out to be 0.07 µM

Source: ChEMBL document CHEMBL3792365
